Source of measurements: patent US20240116985A1

target or test system: full-length beta-Catenin (Uniprot ID P35222) (Homo sapiens (Human)) (UniProt P35222)
assay summary: fluorescence polarization competition; full-length beta-catenin, competitor probe 5FAM-TCF4(10-53)
Starred links: 1 amine or outer side, 2 acyl side, 3 side chain; linkers in the order of their positions; H or OH if unused. Positions of bridges follow the written chain, without caps; N, C: chain ends. Non-standard residues stand in square brackets, D forms with d. Primed or numbered codes have the meaning given here. *: point of attachment. PyrS2″ = (S)-3-amino-1-((pent-4-en-1-yloxy)carbonyl)pyrrolidine-3-carboxylic acid (stapling residue), C=CCCCOC(=O)N1CC[C@@](N[*:1])(C(=O)[*:2])C1; B5(4) = 2,2-bis(4-pentenyl)glycine = 2-amino-2-(pent-4-en-1-yl)hept-6-enoic acid (stitching residue), C=CCCCC(CCCC=C)(N[*:1])C(=O)[*:2]; PyrS2 = (S)-3-amino-1-((pent-4-en-1-yloxy)carbonyl)pyrrolidine-3-carboxylic acid, C=CCCCOC(=O)N1CC[C@@](N[*:1])(C(=O)[*:2])C1; B5(3) = 2,2-bis(4-pentenyl)glycine (stitching residue), C=CCCCC(CCCC=C)(N[*:1])C(=O)[*:2]; Phe(3-COOH) = N[C@@H](Cc1cccc(C(=O)O)c1)C(=O)O; Phe(2-Cl) = N[C@@H](Cc1ccccc1Cl)C(=O)O; Bta = N[C@@H](Cc1csc2ccccc12)C(=O)O; αAllylPro = C=CC[C@@]1(C(=O)O)CCCN1; tBuAla = CC(C)(C)C[C@H](N)C(=O)O; 3Thi = N[C@@H](Cc1ccsc1)C(=O)O; BrAc = O=C(CBr)*
endpoint: IC50 (nM)
Please reply with the bare figure in nM and do not write the unit itself.

Measured IC50, Ac-[αAllylPro]D[tBuAla][B5(3)]D[Phe(3-COOH)]AAFL[PyrS2″][3Thi][Bta]NL-NH2 (staple 1-4, 4-11) [I-2274] : 10

Measured IC50, BrAc-[αAllylPro]D[tBuAla][B5(4)]D[Phe(3-COOH)]AAFL[PyrS2][Phe(2-Cl)][Bta]A-NH2 (staple 1-4, 4-11) [I-2286] : 88

Measured IC50, Ac-[αAllylPro]D[tBuAla][B5(4)]D[Phe(3-COOH)]AAFL[PyrS2][3Thi][Bta]NALALA-NH2 (staple 1-4, 4-11; also: earlier eluting staple isomer) [I-2281] : 138

Measured IC50, Ac-[αAllylPro]D[tBuAla][B5(4)]D[Phe(3-COOH)]AAFS[PyrS2″][3Thi][Bta]Q-NH2 (staple 1-4, 4-11; also: later eluting HPLC staple isomer) [I-979] : 240
